# EXPERIMENTAL TARGET: Cytochrome P450 1A2 (Homo sapiens) (UniProt P05177)
# Sequence (P05177 whole entry, looked up): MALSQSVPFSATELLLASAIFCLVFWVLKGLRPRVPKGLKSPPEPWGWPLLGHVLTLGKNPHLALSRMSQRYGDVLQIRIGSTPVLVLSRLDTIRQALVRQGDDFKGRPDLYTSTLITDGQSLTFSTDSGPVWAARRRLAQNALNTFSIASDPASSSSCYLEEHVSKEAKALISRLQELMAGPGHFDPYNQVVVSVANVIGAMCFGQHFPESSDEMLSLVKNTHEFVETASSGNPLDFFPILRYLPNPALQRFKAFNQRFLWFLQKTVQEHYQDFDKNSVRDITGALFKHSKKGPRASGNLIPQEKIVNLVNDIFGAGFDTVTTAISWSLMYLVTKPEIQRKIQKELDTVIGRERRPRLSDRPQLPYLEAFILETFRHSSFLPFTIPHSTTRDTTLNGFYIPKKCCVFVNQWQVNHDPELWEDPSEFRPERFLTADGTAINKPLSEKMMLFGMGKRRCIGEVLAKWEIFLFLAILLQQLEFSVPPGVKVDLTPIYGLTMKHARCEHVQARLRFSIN
# ASSAY EXPLANATION: Cytochrome P450 Family 1 Subfamily A Member 2 (CYP1A2) small molecule antagonists: luciferase reporter qHTS assay (AID 1671199); further: nearly all actives have a fitted effect of over 50% in size
# TEST CONTEXT: P450-Glo CYP1A2 enzyme, luciferin luminescence, 1 h; series mostly up to 115 µM
Results filed as inconclusive are left out. The source made the active and inactive calls. The call rests on the fitted dose curve; in most records, active means well fitted inhibition curve with a large enough effect in the repeat runs; inconclusive means weak or mixed curves; inactive means no such curve, though single readings can be large or run the other way.
Would you mind answering with one of these outcomes? active, inactive

Task item: Please let me know the test result on file for Nc1nc2c(ncn2COCCO)c(=O)[nH]1 .
Reply: inactive

Task item: Please let me know the test result on file for CC(C)=CCC1=C(O)c2ccccc2C(=O)C1=O .
Reply: active

Task item: Please let me know the test result on file for OCC(F)(F)F .
Reply: inactive

Task item: Please let me know the test result on file for CCC(=O)C(=O)CC .
Reply: inactive

Task item: Please let me know the test result on file for OC[C@H]1O[C@H](O[C@H]2O[C@H](CO)[C@@H](O)[C@H](O)[C@H]2O)[C@H](O)[C@@H](O)[C@@H]1O .
Reply: active

Task item: Please let me know the test result on file for CCN(CC)C(=O)c1cc(S(=O)(=O)Cc2ccccc2)c(N2CCC(c3ccccc3)CC2)cc1N(CC)CCN(C)C .
Reply: inactive

Task item: Please let me know the test result on file for FC(F)(F)c1cccc(Cl)c1 .
Reply: inactive

###

# EXPERIMENTAL TARGET: Nuclear receptor ROR-gamma (Homo sapiens) (UniProt P51449)
# ASSAY EXPLANATION: qHTS assay to identify small molecule antagonists of the retinoid-related orphan receptor gamma (ROR-gamma) signaling pathway (AID 1159521; further: nearly all actives have a fitted effect of over 50% in size)
# TEST CONTEXT: Tet-on RORgamma CHO cells, RORE-luciferase, 16 h; series mostly up to 92.4 µM
Inconclusive results are not listed. Activity calls are given as the source filed them. Calls follow the shape of the dose curve; as a rule, active = well fitted inhibition curve with a large enough effect in the repeat runs; inconclusive = weak or mixed curves, or effect the other way; inactive = no such curve, though single readings can be large or run the other way.
Would you mind answering with one of these outcomes? 1 (active), -1 (inactive)

Task item: Please let me know the test result on file for CCN(CC)C(=O)c1cc(S(=O)(=O)Cc2ccccc2)c(N2CCC(c3ccccc3)CC2)cc1N(CC)CCN(C)C .
Reply: 1

Task item: Please let me know the test result on file for C=Cc1cccc(C)c1 .
Reply: -1

Task item: Please let me know the test result on file for Clc1sc(Cl)c(Cl)c1Cl .
Reply: -1

Task item: Please let me know the test result on file for CCC(C)n1ncn(-c2ccc(N3CCN(c4ccc(OC[C@H]5CO[C@](Cn6cncn6)(c6ccc(Cl)cc6Cl)O5)cc4)CC3)cc2)c1=O (stereo partly drawn) .
Reply: 1

Task item: Please let me know the test result on file for Oc1c(I)cc(Cl)c2cccnc12 .
Reply: 1

Task item: Please let me know the test result on file for O=C(O)c1cc(N=Nc2ccc([N+](=O)[O-])cc2)ccc1O .
Reply: -1

Task item: Please let me know the test result on file for C=C(CC)C(=O)c1ccc(OCC(=O)O)c(Cl)c1Cl .
Reply: 1

Task item: Please let me know the test result on file for CC(C)OC(=O)C(O)(CC(=O)O)CC(=O)O .
Reply: -1

###

# ASSAY EXPLANATION: qHTS assay to identify small molecule agonists of the endoplasmic reticulum stress response signaling pathway - cell viability counter screen (AID 1159517); further: nearly all actives have a fitted effect of over 50% in size
# TEST CONTEXT: ESRE-bla HeLa viability, CellTiter-Glo luminescence, 5 h; series mostly up to 61 µM
Inconclusive results are not listed. The source made the active and inactive calls. The call rests on the fitted dose curve.
Would you mind answering with one of these outcomes? 1 for active, 0 for inactive

Task item: Please let me know the test result on file for O=c1[nH]c2ccccc2n1CCCN1CCN(C(c2ccccc2)c2ccccc2)CC1 .
Reply: 0

Task item: Please let me know the test result on file for CC(C)=CCNc1ncnc2c1ncn2[C@@H]1O[C@H](CO)[C@@H](O)[C@H]1O .
Reply: 1

Task item: Please let me know the test result on file for Cc1nc(-c2ccc(Cl)cc2)oc1COC(C)(C)C(=O)O .
Reply: 0

Task item: Please let me know the test result on file for O=C(/C=C/c1ccccc1)OC/C=C/c1ccccc1 .
Reply: 0

Task item: Please let me know the test result on file for O=[N+]([O-])c1ccc(O)cc1C(F)(F)F .
Reply: 0

Task item: Please let me know the test result on file for O=S(=O)(O)c1ccc(N=Nc2c(O)ccc3ccccc23)cc1 .
Reply: 0

Task item: Please let me know the test result on file for O=c1c(O)c(-c2ccc(O)cc2O)oc2cc(O)cc(O)c12 .
Reply: 0

Task item: Please let me know the test result on file for Cc1c(C)c2c(c(C)c1O)CC[C@@](C)(CCC[C@H](C)CCC[C@H](C)CCCC(C)C)O2 .
Reply: 0

Task item: Please let me know the test result on file for NC(=S)NC(N)=S .
Reply: 0

Task item: Please let me know the test result on file for CCCCCCCCCCCCOCCOCCOCCOCCOCCOCCOCCOCCOCCO .
Reply: 0

Task item: Please let me know the test result on file for CCCCCCCCCCCC(=O)OCC(C)OC(=O)CCCCC(=O)O (centres undefined) .
Reply: 0

Task item: Please let me know the test result on file for Sc1nc2ccccc2s1 .
Reply: 0

Task item: Please let me know the test result on file for O=c1oc2cc(O)ccc2c2oc3cc(O)ccc3c12 .
Reply: 0

Task item: Please let me know the test result on file for CNc1ccc([N+](=O)[O-])cc1 .
Reply: 0

Task item: Please let me know the test result on file for OC12N=C(c3ccccc3)SC1Cc1cc(Cl)ccc12 (centres undefined) .
Reply: 0

Task item: Please let me know the test result on file for CCCCN(CCCC)CC(O)c1cc(Cl)cc2c1-c1ccc(Cl)cc1/C2=C/c1ccc(Cl)cc1 (centres undefined) .
Reply: 0

Task item: Please let me know the test result on file for O=C(O)c1cc(N=Nc2ccc([N+](=O)[O-])cc2)ccc1O .
Reply: 0

Task item: Please let me know the test result on file for Cc1ccc(C(C)C)cc2c(C)ccc1-2 .
Reply: 0

Task item: Please let me know the test result on file for CCC(C)(CCC(C)C)C(=O)[O][Sn]([CH3])([CH3])[O]C(=O)C(C)(CC)CCC(C)C (centres undefined) .
Reply: 0

Task item: Please let me know the test result on file for Nc1nc2c(ncn2COCCO)c(=O)[nH]1 .
Reply: 0

Task item: Please let me know the test result on file for OC1CCC(C2CCCCC2)CC1 (centres undefined) .
Reply: 0

Task item: Please let me know the test result on file for CCCCC(CC)CN1CN(CC(CC)CCCC)CC(C)(N)C1 (centres undefined) .
Reply: 1

Task item: Please let me know the test result on file for CCC(COC(=O)CCS)(COC(=O)CCS)COC(=O)CCS .
Reply: 0

Task item: Please let me know the test result on file for C=CC(=O)Nc1cc2c(Nc3ccc(F)c(Cl)c3)ncnc2cc1OCCCN1CCOCC1 .
Reply: 1

Each recorded value in this set is attributed to PubChem BioAssay (Tox21).
